B1: MLH1 (parent)
chain: YAHQMVRTDSREQKLDAFLQPLSK

Variants of: B1
Experiment Summary: protein stability index of a GFP-peptide fusion (GPS, HEK-293T) (PSI 1-6); higher = more stable;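 note: lentivirally expressed fusions sorted by FACS into six bins by GFP to DsRed ratio, PSI derived from sequencing read proportions per bin multiplied by bin number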
Experimental Parameters: c terminus: a fixed tail appended
Endpoint Label: protein stability index

- A2V: 1.93
- V6T: 2.7
- L22E: 3.02
- E12N: 2.37
- L22C: 2.59
- K14L: 1.54
- Q4A: 2.1
- S10R: 2.51
- A17L: 1.85
- L15H: 2.57
- D16S: 2.1
- S10Q: 2.78
- K14V: 2.57
- S10T: 2.39
- Y1C: 1.59
- E12Y: 1.98
- L15W: 2.37
- D9Q: 2.7
- P21V: 2.48
- D9C: 2.46
- S23T: 2.43
- D9H: 2.75
- Y1L: 3.16
- E12D: 3.18
- S10A: 2.97
- D9P: 2.29
- A17K: 3.29
- F18V: 3.15
- H3C: 2.01
- Q20R: 2.5
- V6Y: 2.42
- K24F: 1.78
- K14N: 2.48
- Q20F: 1.91
- Y1W: 2.66
- R7F: 2.18
- E12M: 1.87
- L19V: 2.84
- R11C: 2.59
- L22R: 3.02
- D9N: 2.53
- F18N: 3.15
- M5P: 2.57
- D9V: 1.89
- A2S: 2.82
- A2D: 4.03
- E12P: 2.32
- E12I: 1.82
- R11I: 2.1
- A17W: 2.19
- K14I: 2.43
- Y1T: 3.87
- Y1A: 3.48
- P21T: 2.21
- S23Q: 2.7
- L19P: 2.55
- F18C: 3.22
- A2H: 1.8
- K14Y: 1.83
- R7E: 3.17
- A2N: 3.54
- E12H: 2.34
- P21K: 2.42
- E12T: 2.29
- Y1M: 3.11
- S10I: 3
- E12R: 2.53
- L19E: 3.38
- D16Y: 1.57
- D9W: 1.8
- L19G: 2.12
- Q4I: 2.16
- P21N: 2.4
- L22G: 3.03
- A2Y: 2.39
- T8P: 2.19
- F18S: 3.52
- L22Y: 2.03
- L19T: 3.02
- R11G: 2.78
- F18T: 3.36
- M5F: 2.34
- K14C: 2.08
- Q13M: 2.06
- D9Y: 1.98
- Y1Q: 3.97
- L15Q: 3.77
- K24L: 1.85
- Y1R: 3.12
- Q20C: 1.98
- K14F: 2
